Numbers sourced from patent US20260226084A1.

The molecules listed here are annotated with their IC50.
# system name: B-Raf kinase (SEQ ID NO: 1) (Homo sapiens, UniProt P15056)
# Construct: GST (N); purchased Sigma
# Sequence (P15056 416-766): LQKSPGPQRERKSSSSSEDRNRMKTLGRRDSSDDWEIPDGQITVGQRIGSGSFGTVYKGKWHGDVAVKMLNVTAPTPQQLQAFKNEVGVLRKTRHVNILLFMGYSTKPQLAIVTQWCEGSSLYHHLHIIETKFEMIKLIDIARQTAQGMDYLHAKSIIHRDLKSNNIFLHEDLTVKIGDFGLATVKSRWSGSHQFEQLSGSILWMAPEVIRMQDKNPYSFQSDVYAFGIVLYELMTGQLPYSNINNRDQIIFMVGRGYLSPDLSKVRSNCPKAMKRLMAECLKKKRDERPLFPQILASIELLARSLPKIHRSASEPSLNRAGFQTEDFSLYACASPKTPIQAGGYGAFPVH
# experimental details: Biochemical Assay for B-Raf (coupled pyruvate kinase/lactate dehydrogenase assay)
# condition details: 1 mM ATP; read-out: BRAF (inhibition of biochemical activity, IC50)

stdin: Give the reported IC50 for Cc1ccc(NC(=O)c2cncc(C(F)(F)F)c2)cc1-c1ccnc(-c2ccnc(NC(=O)C3CC3)c2)c1 [Example 78] (system: B-Raf kinase (SEQ ID NO: 1) (Homo sapiens, UniProt P15056)).
stdout: < 100 nM

stdin: # repeat for Cc1ccc(NC(=O)c2cncc(C(F)(F)F)n2)cc1-c1cncc(-c2ccnc(NC(=O)C3CC3)c2)c1 [Example 5]
stdout: < 100 nM

stdin: # iterate: Cc1ccc(NC(=O)c2cc(N)cnn2)cc1-c1ccnc(-c2ccnc(NC(=O)C3CC3)c2)c1 [Example 99]
stdout: 500 to 1000 nM

stdin: COCC(=O)Nc1cc(-c2cc(-c3cc(NC(=O)c4cc(C(F)(F)F)cnn4)ccc3C)ccn2)ccn1 [Example 48] , same question.
stdout: < 100 nM

stdin: Lookup Cc1ccc(NC(=O)c2cc(C(F)(F)F)cnn2)cc1-c1ccnc(-c2ccnc(N)c2)c1 [Example 2]
stdout: < 100 nM

stdin: Next molecule up: Cc1ccc(NC(=O)c2cncc(C(F)(F)F)n2)cc1-c1cncc(-c2cc(NC(=O)C3CC3)ncn2)c1 [Example 61]
stdout: < 100 nM
